# assay_notes: ATG_SREBP_CIS: Attagene CIS-FACTORIAL HepG2 Assay for human Sterol Regulatory Element Binding (SREBP) (AID 2282962)
# test_conditions: HepG2 Attagene cis-factorial SREBP reporter, mRNA; actives raise or lower the signal
Active and inactive are the calls of the source. Rule for the calls: active = hit-call score of the fitted dose curve at least 0.9, where 1 is the maximum; inactive = score below 0.9.
# output must be one of 1.0 for active, 0.0 for inactive

{"compound": "Cc1cc(C)c(C)c(O)c1", "category": 0.0}
{"compound": "O=C(O)c1cc(Cl)cc([N+](=O)[O-])c1Cl", "category": 0.0}
{"compound": "O=c1n(CCO)c(=O)n(CCO)c(=O)n1CCO", "category": 0.0}
{"compound": "CC(C)(C)c1n[nH]c(=O)n(N)c1=O", "category": 0.0}
{"compound": "O=Cc1ccc(CO)o1", "category": 0.0}

input: Can you look up the reported call for "C=CC(C)(C)C" for me?
output: 0.0

input: Can you look up the reported call for "C=CCOc1c(Br)cc(Br)cc1Br" for me?
output: 0.0

input: Can you look up the reported call for "O=C(c1ccccc1)c1ccc(O)c(O)c1O" for me?
output: 0.0
